System: Vero E6
Test: cell viability relative to DMSO; higher = less toxic
Conditions: 72 h; 10000 nM

[
  {
    "MOLECULE": "NCCCC[C@H](NC(=O)[C@@H]1CCCN1C(=O)[C@@H]1CSSC[C@H](N)C(=O)N[C@@H](Cc2ccc(O)cc2)C(=O)N[C@@H](Cc2ccccc2)C(=O)N[C@@H](CCC(N)=O)C(=O)N[C@@H](CC(N)=O)C(=O)N1)C(=O)NCC(N)=O [lypressin]",
    "SYSTEM NAME": "Vero E6",
    "cell viability": "100%"
  },
  {
    "MOLECULE": "COc1ccc(NC(=O)c2ccc(-c3ccc(-c4noc(C)n4)cc3C)cc2)cc1N1CCN(C)CC1",
    "SYSTEM NAME": "Vero E6",
    "cell viability": "31.6%"
  },
  {
    "MOLECULE": "Cn1c(=O)c2c(ncn2CCO)n(C)c1=O [etofylline]",
    "SYSTEM NAME": "Vero E6",
    "cell viability": "103%"
  },
  {
    "MOLECULE": "CC1=C(C(=O)O)N2C(=O)[C@@H](NC(=O)[C@H](N)C3=CCC=CC3)[C@H]2SC1 [cephradine]",
    "SYSTEM NAME": "Vero E6",
    "cell viability": "99.2%"
  },
  {
    "MOLECULE": "C[C@@H]1CC[C@@]2(NC1)O[C@H]1C[C@H]3[C@@H]4CC=C5C[C@@H](O[C@@H]6O[C@H](CO)[C@@H](O[C@@H]7O[C@@H](C)[C@H](O)[C@@H](O)[C@H]7O)[C@H](O)[C@H]6O[C@@H]6O[C@@H](C)[C@H](O)[C@@H](O)[C@H]6O)CC[C@]5(C)[C@H]4CC[C@]3(C)[C@H]1[C@@H]2C [solamargine]",
    "SYSTEM NAME": "Vero E6",
    "cell viability": "0%"
  }
]
